Each item that follows carries a reported pKa.
# Experiment Summary: Dissociation constant was determined
# Type: physicochemical

{"Compound": "CC[C@@H](C(=O)[C@@H](C)[C@@H](O)[C@H](C)CCc1c(Br)cc(C)c(O)c1C(=O)O)[C@H]1O[C@](CC)([C@H]2CC[C@](O)(CC)[C@H](C)O2)C[C@@H]1C [BROMOLASALOCID]", "Observed Result": 3.9}
{"Compound": "CC[C@@H](C(=O)[C@@H](C)[C@@H](O)[C@H](C)CCc1c(N)cc(C)c(O)c1C(=O)O)[C@H]1O[C@](CC)([C@H]2CC[C@](O)(CC)[C@H](C)O2)C[C@@H]1C [AMINOLASALOCID]", "Observed Result": 6}
{"Compound": "CC[C@@H](C(=O)[C@@H](C)[C@@H](O)[C@H](C)CCc1ccc(C)c(O)c1C(=O)O)[C@H]1O[C@](CC)([C@H]2CC[C@](O)(CC)[C@H](C)O2)C[C@@H]1C [LASALOCID]", "Observed Result": 4.4}

Reported pKa ( CC[C@@H](C(=O)[C@@H](C)[C@@H](O)[C@H](C)CCc1c(I)cc(C)c(O)c1C(=O)O)[C@H]1O[C@](CC)([C@H]2CC[C@](O)(CC)[C@H](C)O2)C[C@@H]1C [IODOLASALOCID] ) = 3.9
